// data source = PubChem BioAssay AID1963440

- Test system: NCI-H1417 complex spheroids, growth % test/control
- procedure.details: Anticancer human tumor NCI-H1417 cell line growth inhibition [Asc];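 also: spheroids exposed to compounds for 7 days; 100% = DMSO vehicle control wells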
- protocol.conditions: second compound 0.03 µM; first compound 0.0316 µM; stronger effect = lower value
# key: entry, value: viability, T/C
I only need the number, in %, no unit after it.

Illustrative cases are given below, each with its answer.
molecule	value.unit	recorded.result
O=C(c1ccc(F)c(F)c1Nc1ccc(I)cc1F)N1CC(O)([C@@H]2CCCCN2)C1 + CCN1C(C(=O)NC23CCC(C(=O)O)(CC2)CC3)C(c2cccc(Cl)c2F)C2(C(=O)Nc3cc(Cl)ccc32)C12CCCCC2	%	88.9
C=C(F)C(=O)N1CCN(c2nc(OCC3CCCN3C)nc3c2CCN(c2cccc4cccc(Cl)c24)C3)CC1CC#N (stereo not given) + CCN1C(C(=O)NC23CCC(C(=O)O)(CC2)CC3)C(c2cccc(Cl)c2F)C2(C(=O)Nc3cc(Cl)ccc32)C12CCCCC2	%	107
Cn1ncnc1[C@H]1c2n[nH]c(=O)c3cc(F)cc(c23)N[C@@H]1c1ccc(F)cc1 + CCN1C(C(=O)NC23CCC(C(=O)O)(CC2)CC3)C(c2cccc(Cl)c2F)C2(C(=O)Nc3cc(Cl)ccc32)C12CCCCC2	%	52.6

Fill in reported viability, T/C for this entry: O=C(c1cc(Cc2n[nH]c(=O)c3ccccc23)ccc1F)N1CCN(C(=O)C2CC2)CC1 + CCN1C(C(=O)NC23CCC(C(=O)O)(CC2)CC3)C(c2cccc(Cl)c2F)C2(C(=O)Nc3cc(Cl)ccc32)C12CCCCC2
98.2

Fill in reported viability, T/C for this entry: COc1c(OCCCN2CCOCC2)ccc2c3n(c(=NC(=O)c4cnc(N)nc4)nc12)CCN3 + CCN1C(C(=O)NC23CCC(C(=O)O)(CC2)CC3)C(c2cccc(Cl)c2F)C2(C(=O)Nc3cc(Cl)ccc32)C12CCCCC2
95.8

---

- Test system: NCI-H1417 complex spheroids, growth % test/control
- procedure.details: Anticancer human tumor NCI-H1417 cell line growth inhibition [Asc];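 also: spheroids exposed to compounds for 7 days; 100% = DMSO vehicle control wells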
- protocol.conditions: second compound 0.1 µM; first compound 0.000316 µM; stronger effect = lower value
# key: entry, value: viability, T/C
I only need the number, in %, no unit after it.

Fill in reported viability, T/C for this entry: Cn1ncnc1[C@H]1c2n[nH]c(=O)c3cc(F)cc(c23)N[C@@H]1c1ccc(F)cc1 + CNC(C)C(=O)NC1CN(S(=O)(=O)c2cccc(S(=O)(=O)N3CCC4CCC(C(=O)NC(c5ccccc5)c5ccccc5)N4C(=O)C(NC(=O)C(C)NC)C3)c2)CCC2CCC(C(=O)NC(c3ccccc3)c3ccccc3)N2C1=O
95.8

Fill in reported viability, T/C for this entry: Cn1ncnc1[C@H]1c2n[nH]c(=O)c3cc(F)cc(c23)N[C@@H]1c1ccc(F)cc1 + Cc1c(S(C)(=O)=O)c(-c2cc(F)cc(N3CCN(c4ccc(NS(=O)(=O)c5ccc(NC(CCN6CCC(C(=O)OCCCP(=O)(O)O)CC6)CSc6ccccc6)c(S(=O)(=O)C(F)(F)F)c5)cc4)CC3)c2)c(-c2ccc(Cl)cc2)n1C(C)C
85.9

Fill in reported viability, T/C for this entry: NC1CCC(NC2CC2c2ccccc2)CC1 (centres undefined) + CNC(C)C(=O)NC1CN(S(=O)(=O)c2cccc(S(=O)(=O)N3CCC4CCC(C(=O)NC(c5ccccc5)c5ccccc5)N4C(=O)C(NC(=O)C(C)NC)C3)c2)CCC2CCC(C(=O)NC(c3ccccc3)c3ccccc3)N2C1=O
84.8

Fill in reported viability, T/C for this entry: NC1CCC(NC2CC2c2ccccc2)CC1 (centres undefined) + Cc1c(S(C)(=O)=O)c(-c2cc(F)cc(N3CCN(c4ccc(NS(=O)(=O)c5ccc(NC(CCN6CCC(C(=O)OCCCP(=O)(O)O)CC6)CSc6ccccc6)c(S(=O)(=O)C(F)(F)F)c5)cc4)CC3)c2)c(-c2ccc(Cl)cc2)n1C(C)C
66.5
